Data credit: paper PMC10810133

Molecular target: Hp0231APHA (Helicobacter pylori, UniProt O25017, C159A/C162A)
Sequence (O25017 whole entry C159A/C162A): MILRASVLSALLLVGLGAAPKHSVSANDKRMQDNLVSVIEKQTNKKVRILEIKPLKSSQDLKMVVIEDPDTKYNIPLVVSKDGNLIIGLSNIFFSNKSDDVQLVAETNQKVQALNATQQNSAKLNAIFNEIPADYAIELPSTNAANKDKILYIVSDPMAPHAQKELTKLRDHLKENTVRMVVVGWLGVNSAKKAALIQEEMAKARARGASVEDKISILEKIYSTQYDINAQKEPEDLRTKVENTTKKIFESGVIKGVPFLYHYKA
Experiment: Microscale thermophoresis (MST) binding of inhibitory peptides to Hp0231APHA (inactive form)
Details: MST, pseudo-titration mode, 25°C; Hp0231APHA (CPHC to APHA, inactive); NB = not binding; read-out: K D
pKd: −log10 of the molar value.

SUBSTANCE	SUBJECT_OF_TEST	pKd
Ac-HQSALYEL-NH2 [WAW6]	Hp0231APHA (Helicobacter pylori, UniProt O25017, C159A/C162A)	< 3.00
Ac-HQSCAYEL-NH2 [WAW7]	Hp0231APHA (Helicobacter pylori, UniProt O25017, C159A/C162A)	< 3.00
